Test system: 699152-130-R-J1-PDC complex spheroid viability
Experiment: Anticancer human tumor 699152-130-R-J1-PDC patient-derived pancreatic carcinoma cell line growth inhibition [POLQ]
Conditions: curve of first compound; second compound 1 µM
Experimental: Multicellular complex tumor spheroid response to Polymerase (POL) inhibitors (novobiocin, ART-558, RP6685) in combination with a variety of drugs and investigational agents in selected tumor cell lines The POL inhibitors (novobiocin, ART-558, and RP6685) were evaluated both individually and in combination with standard of care and investigational anticancer small molecules within a complex spheroid model of solid tumors. . […]
READOUT LABEL: IC50

// solved cases for IC50 follow
[[record]]
molecule = "Nc1ccn(C2OC(CO)C(O)C2(F)F)c(=O)n1 (stereo not drawn) + Nc1ccc(C#CCN(C(=O)Cc2ncc(C(F)(F)F)cc2C(F)(F)F)c2ccc(F)cc2)nn1"
result = "2.37 µM"

[[record]]
molecule = "CNCc1ccc(-c2[nH]c3cc(F)cc4c3c2CCNC4=O)cc1 + Cc1cccc(N(C)C(=O)C2C(O)CCN2c2nc(C)cc(C(F)(F)F)c2C#N)c1"
result = "> 10 µM"


Please examine the following record next.
Entry O=C(c1cc(Cc2n[nH]c(=O)c3ccccc23)ccc1F)N1CCN(C(=O)C2CC2)CC1 + Nc1ccc(C#CCN(C(=O)Cc2ncc(C(F)(F)F)cc2C(F)(F)F)c2ccc(F)cc2)nn1 — recorded IC50 = > 10 µM

* * *

Would you mind telling me the reported viability, T/C of each entry?
test system: 699152-130-R-J1-PDC complex spheroid viability; experiment: Anticancer human tumor 699152-130-R-J1-PDC cell line growth inhibition [POLQ]; conditions: second compound 0.0316 µM; first compound 0.316 µM; stronger effect = lower value;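 further: spheroids exposed to agents for 7 days before viability reading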;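 on viability, T/C: percent of DMSO vehicle control viability so 100% = vehicle and 0% = no viable signal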
Numbers only, in %.

Previously resolved entries follow.
[[record]]
molecule = "CC(C)n1c(=O)n(C)c2cnc3cc(F)c(-c4ccc(OCCCN5CCCCC5)nc4)cc3c21 + COC1C(OC(N)=O)C(O)C(Oc2ccc3c(O)c(NC(=O)c4ccc(O)c(CC=C(C)C)c4)c(=O)oc3c2C)OC1(C)C"
readout_label = "viability, T/C"
result_number = 39.9

[[record]]
molecule = "O=C(c1cc(Cc2n[nH]c(=O)c3ccccc23)ccc1F)N1CCN(C(=O)C2CC2)CC1 + Cc1cccc(N(C)C(=O)C2C(O)CCN2c2nc(C)cc(C(F)(F)F)c2C#N)c1"
readout_label = "viability, T/C"
result_number = 82.7


Provide viability, T/C values for the following items, in order.
1. CCc1c2c(nc3ccc(O)cc13)-c1cc3c(c(=O)n1C2)COC(=O)[C@]3(O)CC + COC1C(OC(N)=O)C(O)C(Oc2ccc3c(O)c(NC(=O)c4ccc(O)c(CC=C(C)C)c4)c(=O)oc3c2C)OC1(C)C
2. Nc1ccn(C2OC(CO)C(O)C2(F)F)c(=O)n1 (stereo not given) + COC1C(OC(N)=O)C(O)C(Oc2ccc3c(O)c(NC(=O)c4ccc(O)c(CC=C(C)C)c4)c(=O)oc3c2C)OC1(C)C
3. C#Cc1c(F)ccc2cc(O)cc(-c3ncc4c(N5CC6CCC(C5)N6)nc(OCC56CCCN5CC(F)C6)nc4c3F)c12 (stereo not given) + COC1C(OC(N)=O)C(O)C(Oc2ccc3c(O)c(NC(=O)c4ccc(O)c(CC=C(C)C)c4)c(=O)oc3c2C)OC1(C)C

Result:
24.4
42.9
15.1
